- test-protocol: NCI Yeast Anticancer Drug Screen. Data for the rad50 strain (AID 155);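 also: 0% = growth of vehicle-only cultures of the same strain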
- stated-conditions: S. cerevisiae rad50 strain growth inhibition; at 50.0 µM; stronger effect = higher value
This is part of a sample that, as a whole, favours compounds with a hit. Of some 79,000 tested, about 15% had one in any assay.
growth inhibition for assorted compounds
Give just the numeric value; % need not be written.

These solved cases illustrate the format of a correct answer.
| compound | readout-unit | growth inhibition |
| --- | --- | --- |
| CC(C(=O)c1ccc(Cl)cc1)/C(=N/NC(=O)NN)C(=O)Nc1cccc(C(F)(F)F)c1 (configuration not stated) | % | -8.45 |
| CC(COc1cc(Cl)c(Cl)cc1Cl)OC(=O)COc1ccc(Cl)cc1Cl (configuration not stated) | % | 8.75 |
| COc1ccc([C@H]2CC3C(=O)N(c4ccc(OC)cc4)C(=O)C3c3[nH]c4ccccc4c32)cc1 (some centres not stated) | % | -10.1 |
| O=C(Nc1ccc(N=C=S)cc1Cl)c1cc(Cl)cc(Cl)c1O | % | 82.3 |
| CCCCOc1c(Cl)cc(Cl)cc1-c1ccccc1 | % | 14.7 |

Task: Give growth inhibition for the following compound: NC(=O)C1C2CC3C(C2O)C31C(N)=O (configuration not stated)
Result: -13.1

Task: Complete the entry with growth inhibition for CC1(C)OC(=O)C(C)(C)OC1=O
Result: -11.7

Task: # return recorded growth inhibition for input N#CC1=C(c2ccccc2)NNC(c2ccc(Cl)cc2)CC1=O (configuration not stated)
Result: -18.1

Task: Return the recorded growth inhibition value; entry: O=C1NC(=O)C(c2ccco2)N1 (configuration not stated)
Result: 3.7

Task: Output growth inhibition of CC(C)NC(=O)OCc1c(COC(=O)NC(C)C)n(C)c2c1ccc1ccccc12
Result: 89.8

Task: Give the value of growth inhibition reported for the following: CCOC(=O)C1CCC2c3[nH]c4ccccc4c3CCN2C1=O (configuration not stated)
Result: -25.3

Task: Complete the entry with growth inhibition for CN1c2ccccc2Nc2cc(C#N)ccc21
Result: -0.7
